# Test system: TT medullary thyroid carcinoma cells, harboring a mutated RET-C634W receptor
# method notes: In Vitro Cell Proliferation Assay (TT)
# Assay type: cell-based
# condition summary: Homo sapiens; 144 hours exposure, CellTiterGlo
measurement name: IC50 (µM)

Worked cases, answers included:
[
  {
    "smiles entry": "CCN1CCN(Cc2cc(NC(=O)Nc3cccc(C#Cc4cnc(N)nc4-c4cc5c(n4C)CCNC5=O)c3)cc(C(F)(F)F)c2)CC1",
    "target system": "TT medullary thyroid carcinoma cells, harboring a mutated RET-C634W receptor",
    "endpoint unit": "µM",
    "IC50": 0.085
  },
  {
    "smiles entry": "CN1CCCN(Cc2ccc(NC(=O)Cc3cccc(C#Cc4cnc(N)nc4-c4cc5c(n4C)CCNC5=O)c3)cc2C(F)(F)F)CC1",
    "target system": "TT medullary thyroid carcinoma cells, harboring a mutated RET-C634W receptor",
    "endpoint unit": "µM",
    "IC50": 0.013
  },
  {
    "smiles entry": "CNc1ncc(C#Cc2cccc(CC(=O)Nc3ccc(CN4CCN(C(C)C)CC4)c(C(F)(F)F)c3)c2)c(-c2cc3c(n2C)CCNC3=O)n1",
    "target system": "TT medullary thyroid carcinoma cells, harboring a mutated RET-C634W receptor",
    "endpoint unit": "µM",
    "IC50": 0.014
  },
  {
    "smiles entry": "Cn1nc(C(C)(C)C)cc1NC(=O)Cc1cccc(C#Cc2cnc(N)nc2-c2cc3c(n2C)CCNC3=O)c1",
    "target system": "TT medullary thyroid carcinoma cells, harboring a mutated RET-C634W receptor",
    "endpoint unit": "µM",
    "IC50": 0.025
  }
]

I: CCN1CCN(Cc2ccc(NC(=O)Nc3cccc(C#Cc4cnc(N)nc4-c4cc5c(n4C)CCNC5=O)c3)cc2C(F)(F)F)CC1
II: CNc1ncc(C#Cc2cc(CC(=O)Nc3ccc(CN4CCN(C)CC4)c(C(F)(F)F)c3)ccc2F)c(-c2cc3c(n2C)CCNC3=O)n1
For I and II , which recorded IC50 is lower? Answer by quoting the chosen item's label. I
(I: 0.002 µM, II: 0.008 µM)

----------
# Test system: A2780 ovarian carcinoma cells
# method notes: In Vitro Cell Proliferation Assay (A2780)
# Format: cell-based
# condition summary: Homo sapiens, 72 hours exposure, CellTiterGlo
pIC50: −log10 of the molar value.
measurement name: pIC50

I: CN(C)[C@H]1CCN(Cc2ccc(NC(=O)Cc3cccc(C#Cc4cnc(N)nc4-c4cc5c(n4C)CCNC5=O)c3)cc2C(F)(F)F)C1
II: CCN1CCN(Cc2ccc(NC(=O)Cc3cncc(C#Cc4cnc(N)nc4-c4cc5c(n4C)CCNC5=O)c3)cc2C(F)(F)F)CC1
III: CCN1CCN(Cc2ccc(NC(=O)c3cccc(C#Cc4cnc(N)nc4-c4cc5c(n4C)CCNC5=O)c3)cc2C(F)(F)F)CC1
Sort these compounds on pIC50 so the largest reading comes first. Write the labels out in the order the request specifies. III, II, I

a: CCN1CCN(Cc2ccc(NC(=O)Nc3cccc(C#Cc4cnccc4-c4cc5c(n4C)CCNC5=O)c3)cc2C(F)(F)F)CC1
b: CNc1ncc(C#Cc2cccc(CC(=O)Nc3ccc(CN4CCN(C(C)C)CC4)c(C(F)(F)F)c3)c2)c(-c2cc3c(n2C)CCNC3=O)n1
a or b : whose pIC50 is greater? Selection: enter the item's label. a
(a: 5.71, b: 5.42)

----------
# Test system: A2780 ovarian carcinoma cells
# method notes: In Vitro Cell Proliferation Assay (A2780)
# Type: cell-based
# condition summary: Homo sapiens, 72 hours exposure, CellTiterGlo
pIC50: −log10 of the molar value.
measurement name: pIC50

As a guide, the following entries are already answered.
[
  {
    "compound": "CCN1CCN(Cc2ccc(NC(=O)Cc3cccc(C#Cc4cnc(NC)nc4-c4cc5c(n4C)CCNC5=O)c3)cc2C(F)(F)F)CC1",
    "pIC50": 5.65
  },
  {
    "compound": "CN1CCCN(Cc2ccc(NC(=O)Cc3cccc(C#Cc4cnc(N)nc4-c4cc5c(n4C)CCNC5=O)c3)cc2C(F)(F)F)CC1",
    "pIC50": 5.72
  },
  {
    "compound": "CCN1CCN(Cc2ccc(NC(=O)Cc3cccc(C#Cc4cnc(N)nc4-c4cc5c(n4C)CCNC5=O)c3)cc2C(F)(F)F)CC1",
    "pIC50": 5.55
  },
  {
    "compound": "CCCN1CCN(Cc2ccc(NC(=O)Cc3cccc(C#Cc4cnc(NC)nc4-c4cc5c(n4C)CCNC5=O)c3)cc2C(F)(F)F)CC1",
    "pIC50": 5.49
  },
  {
    "compound": "CCN1CCN(Cc2ccc(NC(=O)Nc3cccc(C#Cc4cnc(N)nc4-c4cc5c(n4C)CCNC5=O)c3)cc2C(F)(F)F)CC1",
    "pIC50": 5.75
  },
  {
    "compound": "CNc1ncc(C#Cc2cccc(CC(=O)Nc3ccc(CN4CCN(C)CC4)c(C(F)(F)F)c3)c2)c(-c2cc3c(n2C)CCNC3=O)n1",
    "pIC50": 5.94
  },
  {
    "compound": "CCN1CCN(Cc2cc(NC(=O)Nc3cccc(C#Cc4cnc(N)nc4-c4cc5c(n4C)CCNC5=O)c3)ccc2C(F)(F)F)CC1",
    "pIC50": 5.94
  },
  {
    "compound": "CNc1ncc(C#Cc2cc(CC(=O)Nc3ccc(CN4CCN(C)CC4)c(C(F)(F)F)c3)ccc2F)c(-c2cc3c(n2C)CCNC3=O)n1",
    "pIC50": 5.64
  },
  {
    "compound": "Cn1nc(C(C)(C)C)cc1NC(=O)Cc1cccc(C#Cc2cnc(N)nc2-c2cc3c(n2C)CCNC3=O)c1",
    "pIC50": 5.56
  },
  {
    "compound": "CCN1CCN(Cc2cc(NC(=O)Nc3cccc(C#Cc4cnc(N)nc4-c4cc5c(n4C)CCNC5=O)c3)cc(C(F)(F)F)c2)CC1",
    "pIC50": 5.65
  }
]

1: CCN1CCN(Cc2ccc(NC(=O)Cc3ccc(C#Cc4cnc(N)nc4-c4cc5c(n4C)CCNC5=O)cc3)cc2C(F)(F)F)CC1
2: CCN1CCN(Cc2ccc(NC(=O)N3CCc4ccc(C#Cc5cnc(N)nc5-c5cc6c(n5C)CCNC6=O)cc43)cc2C(F)(F)F)CC1
3: CCNc1ncc(C#Cc2cccc(CC(=O)Nc3ccc(CN4CCN(C)CC4)c(C(F)(F)F)c3)c2)c(-c2cc3c(n2C)CCNC3=O)n1
4: CCN1CCN(Cc2ccc(NC(=O)Cc3ccc(C#Cc4cnc(N)nc4-c4cc5c(n4C)CCNC5=O)s3)cc2C(F)(F)F)CC1
Your job: order these 4 records by pIC50, ascending. Sort the labels as requested; that list is your answer. 1, 2, 3, 4

A: CCN1CCN(Cc2ccc(NC(=O)Nc3ccc(C#Cc4cnc(N)nc4-c4cc5c(n4C)CCNC5=O)cc3)cc2C(F)(F)F)CC1
B: Cn1c(-c2nc(N)ncc2C#Cc2cccc(NC(=O)Nc3ccc(C(F)(F)F)cc3)c2)cc2c1CCNC2=O [Reference cmpd, reference compound]
Could you tell me which of A and B has the lower pIC50 reading? Indicate which entry you chose by stating its label. B

----------
# Test system: MZ-CRC-1 medullary thyroid carcinoma cells, harboring a mutated RET-M918T receptor
# method notes: In Vitro Cell Proliferation Assay (MZ-CRC-1)
# Format: cell-based
# condition summary: Homo sapiens, 144 hours exposure, CellTiterGlo
measurement name: IC50 (µM)

Illustrative cases are given below, each with its answer.
[
  {
    "compound": "CNc1ncc(C#Cc2cc(CC(=O)Nc3ccc(CN4CCN(C)CC4)c(C(F)(F)F)c3)ccc2F)c(-c2cc3c(n2C)CCNC3=O)n1 [Cmpd 190]",
    "IC50 (µM)": 0.039
  },
  {
    "compound": "CCN1CCN(Cc2ccc(NC(=O)Nc3cccc(C#Cc4cnc(N)nc4-c4cc5c(n4C)CCNC5=O)c3)cc2C(F)(F)F)CC1 [Cmpd 8]",
    "IC50 (µM)": 0.074
  },
  {
    "compound": "CCCN1CCN(Cc2ccc(NC(=O)Cc3cccc(C#Cc4cnc(NC)nc4-c4cc5c(n4C)CCNC5=O)c3)cc2C(F)(F)F)CC1 [Cmpd 179]",
    "IC50 (µM)": 0.038
  },
  {
    "compound": "CCNc1ncc(C#Cc2cccc(CC(=O)Nc3ccc(CN4CCN(C)CC4)c(C(F)(F)F)c3)c2)c(-c2cc3c(n2C)CCNC3=O)n1 [Cmpd 193]",
    "IC50 (µM)": 0.039
  }
]

A: CCN1CCN(Cc2ccc(NC(=O)N3CCc4ccc(C#Cc5cnc(N)nc5-c5cc6c(n5C)CCNC6=O)cc43)cc2C(F)(F)F)CC1 [Cmpd 44]
B: CCN1CCN(Cc2ccc(NC(=O)Cc3cccc(C#Cc4cnc(N)nc4-c4cc5c(n4C)CCNC5=O)c3)cc2C(F)(F)F)CC1 [Cmpd 77]
// select label with min value of measured IC50 from [ A , B ] # respond with the chosen item's label B
(B: 0.023 µM, A: 0.231 µM)
